# credit: patent US5441956A

- target-system: δ opioid receptor (delta sites) (Cavia porcellus)
- Construct: performed on fresh guinea pig brain homogenates
- Sequence (A0A286XTF2 1-366): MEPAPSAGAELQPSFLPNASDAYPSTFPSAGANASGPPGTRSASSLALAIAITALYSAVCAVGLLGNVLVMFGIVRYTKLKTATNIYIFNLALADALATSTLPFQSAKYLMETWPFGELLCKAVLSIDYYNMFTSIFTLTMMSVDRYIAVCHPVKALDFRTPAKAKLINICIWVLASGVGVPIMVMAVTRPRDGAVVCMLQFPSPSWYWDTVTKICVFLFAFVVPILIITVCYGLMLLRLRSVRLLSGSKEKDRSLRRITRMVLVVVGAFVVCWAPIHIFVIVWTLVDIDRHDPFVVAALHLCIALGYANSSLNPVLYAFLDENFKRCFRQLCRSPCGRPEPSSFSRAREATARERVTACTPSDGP
- protocol-notes: Binding to delta sites (radioreceptor binding, 3H-DADLE with unlabelled DAGO)
- experimental-setup: guinea pig brain homogenate, 3H-DADLE + 30 nM DAGO, 40 min at 25° C.
Counter-ions that a name gives are not always drawn.
recorded-metric: Ki (nM)
Answers are plain numbers, in nM.

Below are worked cases with known answers.
molecule	recorded-metric	value-units	test-result
CCN1CC[C@]2(c3cccc(O)c3)Cc3[nH]c4ccccc4c3C[C@H]2C1 (single isomer, unassigned) [Example 39, hydrochloride]	Ki	nM	6.24
CN1CC[C@]2(c3cccc(O)c3)Cc3[nH]c4c(Cl)cccc4c3C[C@H]2C1 (relative stereo)	Ki	nM	16.4
CN1CC[C@]2(c3cccc(O)c3)Cc3[nH]c4ccccc4c3C[C@H]2C1 (relative stereo) [Example 5, hydrochloride]	Ki	nM	16
CN1CC[C@]2(c3cccc(O)c3)Cc3oc4ccccc4c3C[C@H]2C1 (relative stereo)	Ki	nM	10.1

Provide reported Ki for each item, in the same order as listed.
1. CCN1CC[C@]2(c3cccc(O)c3)Cc3[nH]c4ccccc4c3C[C@H]2C1 (relative stereo) [Example 1, hydrochloride]
2. Cc1ccc2[nH]c3c(c2c1)C[C@H]1CN(C)CC[C@]1(c1cccc(O)c1)C3 (relative stereo)
3. CN1CC[C@]2(c3cccc(O)c3)Cc3c(c4ccccc4n3C)C[C@H]2C1 (relative stereo)

## Result
1. 16.4
2. 61.9
3. 33.6

---

pKi tested on UniProtKB A0ACM8Q262: recorded values
Sequence (A0ACM8Q262 1-400): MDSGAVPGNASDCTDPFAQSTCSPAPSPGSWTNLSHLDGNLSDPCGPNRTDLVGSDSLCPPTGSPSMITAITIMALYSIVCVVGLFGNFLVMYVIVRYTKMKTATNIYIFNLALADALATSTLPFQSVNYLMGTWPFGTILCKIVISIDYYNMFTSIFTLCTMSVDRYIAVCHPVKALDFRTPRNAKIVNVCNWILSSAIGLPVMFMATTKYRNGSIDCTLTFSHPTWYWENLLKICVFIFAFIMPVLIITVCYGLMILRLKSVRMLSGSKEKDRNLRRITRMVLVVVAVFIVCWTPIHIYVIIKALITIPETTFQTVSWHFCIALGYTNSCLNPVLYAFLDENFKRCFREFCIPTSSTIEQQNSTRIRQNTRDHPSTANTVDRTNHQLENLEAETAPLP
Structures can show the parent of a compound that is named as a salt.
Numbers only, as −log10 of the molar value.

Hello, I would appreciate it if you could give pKi for each entry below.
1. Cc1ccc2[nH]c3c(c2c1)C[C@H]1CN(C)CC[C@]1(c1cccc(O)c1)C3 (relative stereo)
2. CCN1CC[C@]2(c3cccc(O)c3)Cc3[nH]c4ccccc4c3C[C@H]2C1 (relative stereo) [Example 1, hydrochloride]
3. CN1CC[C@]2(c3cccc(O)c3)Cc3[nH]c4ccccc4c3C[C@H]2C1 (relative stereo) [Example 5, hydrochloride]
4. CN1CC[C@]2(c3cccc(O)c3)Cc3c(c4ccccc4n3C)C[C@H]2C1 (relative stereo)

## Result
1. 6.17
2. 5.68
3. 6.51
4. 6.51

Provide reported pKi for each item, in the same order as listed.
1. CN1CC[C@]2(c3cccc(O)c3)Cc3[nH]c4c(Cl)cccc4c3C[C@H]2C1 (relative stereo)
2. CN1CC[C@]2(c3cccc(O)c3)Cc3oc4ccccc4c3C[C@H]2C1 (relative stereo)
3. CCN1CC[C@]2(c3cccc(O)c3)Cc3[nH]c4ccccc4c3C[C@H]2C1 (single isomer, unassigned) [Example 39, hydrochloride]

## Result
1: 6.25; 2: 6.98; 3: 5.65
